Readings of protein stability index for the listed variants
B1: IQUB (parent)
chain: KIREKEEWIKLDYHRRHNPKTNED

Variants of: B1
protocol-description: protein stability index of a GFP-peptide fusion (GPS, HEK-293T) (PSI 1-6); higher = more stable;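 further: lentivirally expressed fusions sorted by FACS into six bins by GFP to DsRed ratio, PSI derived from sequencing read proportions per bin multiplied by bin number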
conditions: c terminus: a fixed tail appended
Just the number, please.

stdin: Find the recorded protein stability index belonging to "N18R" and report it.
stdout: 4.31

stdin: Likewise for "I9D" ?
stdout: 5.22

---
stdin: Name the recorded protein stability index for "N22K" .
stdout: 4.29

stdin: Subsequent entry: "R3M"
stdout: 4.02

stdin: "E7Y" , same question.
stdout: 3.31

stdin: Would you mind doing "R15N" as well?
stdout: 4.39

stdin: Okay, and "K5E" ?
stdout: 4.45

stdin: Moving on to the next variant: "T21A"
stdout: 5.18

stdin: Same lookup for "L11Y" , please.
stdout: 4.81

stdin: Could you do the same for "H17E" , please?
stdout: 4.11

stdin: Then this variant: "E23L"
stdout: 4.17

stdin: Same question, "T21N" this time
stdout: 4.75

stdin: Try this variant too: "K5C"
stdout: 4.09

stdin: One more variant: "I9L"
stdout: 4.66

stdin: Then this variant: "E23C"
stdout: 3.91
